# Measured On: muscarinic receptors
# Assay Method Text: Radio ligand binding: displacement of 3H-Oxotremorine-M (muscarinic agonist) from rat cerebral cortex membranes
# Parameters: species or system Hooded Lister rats
# Condition Context: displacement of 2 nM 3H-OXO-M, 2 mM magnesium chloride, 37° C., 30 min, tested as oxalate salts
pIC50: −log10 of the molar value.
Rule: pIC50 under 7 gives not satisfied, otherwise satisfied.

Examples with answers:
> print(dat)
                                   compound           measured.on    label.class
1     Cc1nc(C2CN3CCC2CC3)no1 (racemic) [E2]  muscarinic receptors  not satisfied
2     Cc1noc(C2CN3CCC2CC3)n1 (racemic) [E1]  muscarinic receptors      satisfied
3  Cc1noc([C@@H]2CN3CCC[C@@H]2C3)n1 (relative stereo) [E6]  muscarinic receptors      satisfied

Proceed to the following item.
Reported pIC50 reaches at least 7 for Cc1noc([C@H]2C[C@@H]3CCN(C3)C2)n1 (relative stereo) [E3] ? satisfied

* * *

# Measured On: muscarinic receptors
# Type: binding, Hooded Lister rats
# Condition Context: displacement of 0.27 nM 3H-QNB; rat cerebral cortex; 37° C., 30 min; tested as oxalate salts
Recorded Metric: pIC50
Here pIC50 is given on a logarithmic scale as minus log10 of the concentration in mol/L.

Request body: readout pIC50, system muscarinic receptors, query Cc1noc([C@H]2C[C@@H]3CCN(C3)C2)n1 (relative stereo) [E3] . Return the value. 5.74

Lookup Cc1nnc(C2CN3CCC2CC3)o1 (racemic) [E4] 4.82

Now give it for c1coc([C@H]2C[C@@H]3CCCN(C3)C2)n1 (relative stereo) [E9] too. 5.51

Also need Cc1noc([C@@H]2CN3CC[C@@H]2C3)n1 (relative stereo) [E10] , thanks. 5.96

Field entry: Cc1noc([C@@H]2CN3CCC[C@@H]2C3)n1 (relative stereo) [E6] 5.64

* * *

Measured pIC50 accompanies every entry in the list below.
# Measured On: muscarinic receptors
# Type: binding, Hooded Lister rats
# Condition Context: displacement of 0.27 nM 3H-QNB; rat cerebral cortex; 37° C., 30 min; tested as oxalate salts
Please treat pIC50 as minus the base-10 logarithm of the molar concentration.

> print(dat)
                                molecule  experimental.result
1        c1coc(C2CN3CCC2CC3)n1 (racemic)                 4.57
2  Cc1noc(C2CN3CCC2CC3)n1 (racemic) [E1]                 5.74
3        c1nnc(C2CN3CCC2CC3)o1 (racemic)                 4.20

Continue with the molecule presented below.
Which pIC50 reading was recorded for the molecule Cc1nc(C2CN3CCC2CC3)no1 (racemic) [E2] ? 4.77

* * *

Listing of recorded pIC50 by entry.
# Measured On: muscarinic receptors
# Assay Method Text: Radio ligand binding: displacement of 3H-Oxotremorine-M (muscarinic agonist) from rat cerebral cortex membranes
# Design: species or system Hooded Lister rats
# Condition Context: displacement of 2 nM 3H-OXO-M, 2 mM magnesium chloride, 37° C., 30 min, tested as oxalate salts
Scale explanation: pIC50 corresponds to minus log10 of a concentration expressed in moles per litre.

Please review the following examples before continuing.
> print(dat)
                           molecule  experimental.result
1  Cc1nnc(C2CN3CCC2CC3)o1 (racemic)                 6.00
2   c1nnc(C2CN3CCC2CC3)o1 (racemic)                 5.55
3   c1coc(C2CN3CCC2CC3)n1 (racemic)                 6.20

Field: next molecule
Param readout= pIC50; system= muscarinic receptors; entry= Cc1noc([C@@H]2CN3CC[C@@H]2C3)n1 (relative stereo) ; returns value. 8.46
